Give pIC50 for every item shown.
Target: Ephrin type-A receptor 8 (Mus musculus, UniProt O09127)
Sequence (O09127 whole entry): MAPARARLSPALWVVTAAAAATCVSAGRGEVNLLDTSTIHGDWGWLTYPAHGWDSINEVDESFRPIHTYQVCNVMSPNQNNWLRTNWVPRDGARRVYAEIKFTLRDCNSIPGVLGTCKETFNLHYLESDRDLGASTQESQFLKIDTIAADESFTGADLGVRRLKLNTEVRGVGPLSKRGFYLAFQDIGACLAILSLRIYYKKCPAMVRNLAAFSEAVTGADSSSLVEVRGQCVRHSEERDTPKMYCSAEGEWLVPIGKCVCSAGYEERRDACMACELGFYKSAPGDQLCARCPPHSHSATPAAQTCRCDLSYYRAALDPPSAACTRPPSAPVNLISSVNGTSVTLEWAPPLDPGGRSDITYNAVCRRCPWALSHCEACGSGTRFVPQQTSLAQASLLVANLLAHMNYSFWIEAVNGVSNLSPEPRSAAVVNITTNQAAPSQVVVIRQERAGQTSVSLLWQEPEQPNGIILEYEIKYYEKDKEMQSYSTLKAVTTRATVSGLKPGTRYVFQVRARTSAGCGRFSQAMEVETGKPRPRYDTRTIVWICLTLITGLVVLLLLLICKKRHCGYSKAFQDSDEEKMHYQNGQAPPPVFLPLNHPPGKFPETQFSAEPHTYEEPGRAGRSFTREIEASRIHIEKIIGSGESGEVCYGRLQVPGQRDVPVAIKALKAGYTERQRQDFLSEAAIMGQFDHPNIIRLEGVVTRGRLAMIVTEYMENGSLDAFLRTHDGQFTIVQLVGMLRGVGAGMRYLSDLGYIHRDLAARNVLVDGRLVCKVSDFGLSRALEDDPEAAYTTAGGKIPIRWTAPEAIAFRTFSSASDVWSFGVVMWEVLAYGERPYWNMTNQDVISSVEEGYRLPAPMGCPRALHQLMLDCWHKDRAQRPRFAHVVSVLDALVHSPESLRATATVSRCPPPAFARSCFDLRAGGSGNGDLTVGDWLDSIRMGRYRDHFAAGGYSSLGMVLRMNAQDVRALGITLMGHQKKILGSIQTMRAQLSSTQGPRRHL
Experiment: Displacement of biotinylated Fc-tagged ephrin-A1 from recombinant N/C-terminal 6-his tagged mouse EphA8 (Gly27 to Arg540 residues) preincubated for 1 hr followed by ephrin-A1-Fc addition and measured after 4 to 5 hrs by ELISA assay
Here pIC50 is given on a logarithmic scale as minus log10 of the concentration in mol/L.

Data request: Would you kindly share the measured pIC50 for `C[C@H](CCC(=O)N[C@H](CC(=O)O)Cc1cn(S(=O)(=O)c2ccccc2)c2ccccc12)[C@H]1CC[C@H]2[C@@H]3CC=C4C[C@@H](O)CC[C@]4(C)[C@H]3CC[C@]12C` ?
Data returned: 5.26

Data request: Would you kindly share the measured pIC50 for `C[C@H](CCC(=O)N[C@H](CC(=O)O)Cc1cn(S(=O)(=O)c2ccc(C(F)(F)F)cc2)c2ccccc12)[C@H]1CC[C@H]2[C@@H]3CC=C4C[C@@H](O)CC[C@]4(C)[C@H]3CC[C@]12C` ?
Data returned: 4.89

Data request: Would you kindly share the measured pIC50 for `C[C@H](CCC(=O)N[C@H](CC(=O)O)Cc1c[nH]c2ccccc12)[C@H]1CC[C@H]2[C@@H]3CC=C4C[C@@H](O)CC[C@]4(C)[C@H]3CC[C@]12C` ?
Data returned: 5.74
